- test-summary: self-splicing fitness, log relative to wild type (ln ratio); higher = more splicing; Tetrahymena group I intron in knt gene, E. coli kanamycin selection, DiMSum; sequences stand for … in CUCUCU…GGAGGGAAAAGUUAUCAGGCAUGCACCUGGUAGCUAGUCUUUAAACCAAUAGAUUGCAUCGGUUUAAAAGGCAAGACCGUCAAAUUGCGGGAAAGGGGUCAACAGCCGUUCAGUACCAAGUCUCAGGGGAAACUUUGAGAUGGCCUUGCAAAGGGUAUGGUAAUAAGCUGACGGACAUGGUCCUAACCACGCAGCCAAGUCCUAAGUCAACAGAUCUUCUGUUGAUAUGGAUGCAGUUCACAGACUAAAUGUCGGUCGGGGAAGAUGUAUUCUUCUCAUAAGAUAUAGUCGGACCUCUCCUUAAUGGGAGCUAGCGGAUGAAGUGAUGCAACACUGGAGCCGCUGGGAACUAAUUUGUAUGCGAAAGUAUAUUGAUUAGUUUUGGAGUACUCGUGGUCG;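 further: selection with 25 µg/mL kanamycin versus none on LB agar overnight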
- condition: 30 °C
Please note: YES applies when self-splicing fitness (ln) is -2 or greater, and NO applies otherwise.

Below are worked cases with known answers.
## Task Check this sequence for self-splicing fitness (ln) at or above -2: CAACAGCAAUAUUACGUCGC
## Result NO

## Task Hi team, for GAGCAGCAAUAUUACGAGAU , is the recorded self-splicing fitness (ln) at or above -2?
## Result NO

## Task Quick check, self-splicing fitness (ln) >= -2? AAAAAGCAAUAUUACGAGCA
## Result YES

## Task Identify whether the reported self-splicing fitness (ln) of the following sequence is -2 or greater: CGAUAGCAAUAUUACGUACG
## Result YES

## Task For this sequence, is measured self-splicing fitness (ln) -2 or higher? GCCGAGCAAUAUUACGGGCC
## Result NO

***
## Task Tell me whether self-splicing fitness (ln) is at least -2 here: UGCUAGCAAUAUUACGAGAU
## Result NO

## Task Can GCUGAGCAAUAUUACGGACA be said to have self-splicing fitness (ln) at or above -2?
## Result NO

## Task Decide: self-splicing fitness (ln) of UUAUAGCAAUAUUACGACCA >= -2?
## Result YES

## Task Check this sequence for self-splicing fitness (ln) at or above -2: CAUCAGCAAUAUUACGGUUU
## Result NO

## Task Please indicate if the recorded self-splicing fitness (ln) for ACUCAGCAAUAUUACGAAAA meets or exceeds -2.
## Result YES

## Task self-splicing fitness (ln) >= -2 for UAUCAGCAAUAUUACGGAAC ?
## Result YES

## Task Does self-splicing fitness (ln) meet or surpass -2 for AAGCAGCAAUAUUACGAGCA ?
## Result YES

## Task Is the recorded value of self-splicing fitness (ln) equal to or greater than -2 for this sequence? GAGCAGCAAUAUUACGGGGU
## Result NO

## Task Decide: self-splicing fitness (ln) of UUUGAGCAAUAUUACGCUAA >= -2?
## Result YES

## Task Kindly determine if self-splicing fitness (ln) recorded for GGCCAGCAAUAUUACGUCCA is above or exactly -2.
## Result YES

## Task Is it the case that AUGUAGCAAUAUUACGACUG has self-splicing fitness (ln) reaching or exceeding -2?
## Result YES

## Task Test whether the sequence ACAUAGCAAUAUUACGGCGA records self-splicing fitness (ln) of -2 or higher.
## Result YES

## Task Could you tell me if the measured self-splicing fitness (ln) of AACGAGCAAUAUUACGCACC reaches -2 or more?
## Result NO

## Task For this sequence, is measured self-splicing fitness (ln) -2 or higher? AAAGAGCAAUAUUACGUCAU
## Result NO

## Task Is self-splicing fitness (ln) at least -2? Consider GUUCAGCAAUAUUACGCGGA
## Result NO

## Task Does the sequence GAACAGCAAUAUUACGGUAC have recorded self-splicing fitness (ln) that is -2 or more?
## Result YES

## Task Textbook exercise: given the entry CGGUAGCAAUAUUACGGCGG , state whether its self-splicing fitness (ln) is greater than or equal to -2.
## Result YES

## Task Hi team, for GUUUAGCAAUAUUACGACAC , is the recorded self-splicing fitness (ln) at or above -2?
## Result YES

Data origin, for the record: the supplement of paper PMC7877785
